normalized RNA/DNA level with ligand (log10) overview
B1: library; a variant is named by its letters at N, in order (parent)
chain: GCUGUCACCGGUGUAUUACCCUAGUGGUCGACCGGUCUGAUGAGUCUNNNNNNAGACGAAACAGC

# Variants of: B1
# experimentDescription: normalized RNA/DNA level with ligand (relative to sTRSVctl = 100) (log10 (% of sTRSVctl)); ligand: hypoxanthine (xanthine aptamer); higher = less ribozyme self-cleavage, higher mRNA level
# measurementSetup: ligand concentration (+) RNA-Seq: 5 mM, HEK293T, reporter: mCherry (pCS4076), ligand present: yes
Write the number on its own, no unit after it.

The following variants have reported results that may help.
UGACUA = 1.95
GAGGGA = 1.9
UUCGGA = 1.95
GUCCCG = 1.91
UCCCAG = 1.84
UACGCU = 1.95

Consider `CUAAAC` . Its measured normalized RNA/DNA level with ligand (log10) is 1.89
